Data credit: the supplement of paper PMC13380429

Tested on: Calu-3
Test: cell viability relative to DMSO; higher = less toxic
Settings: 72 h; 1000 nM
Counter-ions that a name gives are not always drawn.
I'd appreciate it if you could supply cell viability values for the items below.
A number alone suffices; assume %.

Indicate the recorded cell viability value for this compound: "O=C(N/N=C/c1ccc([N+](=O)[O-])o1)c1cc([N+](=O)[O-])cc([N+](=O)[O-])c1O" 94.9

State its cell viability for this compound: "NC1=NC(=O)N([C@H]2C[C@H](O)[C@@H](CO)O2)CN1" 98.9

Name the recorded cell viability of the compound listed here: CN1[C@@H]2C[C@@H](OC(=O)[C@H](CO)c3ccccc3)C[C@H]1[C@@H]1O[C@@H]12 [SCOPOLAMINE HYDROBROMIDE] 101

Could you please provide reported cell viability for "Oc1ccnc2cc(Cl)ccc12" ? Thanks! 105

Retrieve cell viability measured for "CCN(CC)c1ccc(/C=N/NC(=O)c2ccc(O)cc2)cc1" and print it. 97.8

Recall and state the measured cell viability for CC(C(=O)O)c1ccc(CC2CCCC2=O)cc1 (configuration not stated) . 108

Output cell viability of "CCOC(=O)C1=C(C)NC(C)=C(C(=O)OCC)C1c1ccccc1/C=C/C(=O)OC(C)(C)C" 93

For the compound "Fc1ccc(CNc2ncnc3ccc(F)cc23)cc1" , give its reported cell viability. 88.6

Kindly indicate its recorded cell viability. Item: CCC(CC)C(c1ccc(Nc2nc3ccccc3s2)cc1)n1cncn1 (configuration not stated) 109

Recall and state the measured cell viability for "COc1cccc(CN(C(=O)CC(C)(C)C)[C@H]2C[C@@H](C(=O)N3CCNCC3)N(Cc3ccc4c(c3)OCO4)C2)c1" . 92.4

Answer with the recorded cell viability of "C[C@@H](N)[C@@H](O)c1ccccc1" only. 102

Quickly give me recorded cell viability for "Nc1cccc(CNC(=O)c2ccc(Oc3ccc(OCc4cccc(F)c4)cc3)nc2)c1" 97.7

Look up and report measured cell viability for this entry: "COCCCC/C(=N\OCCN)c1ccc(C(F)(F)F)cc1" 96.5

Identify measured cell viability associated with "NC(=O)N/N=C/c1ccc(Oc2ccc(F)cc2)cc1" 92.8

In one line, give reported cell viability of the entry "Cc1cc(SCc2sc(-c3ccc(C(F)(F)F)cc3)nc2C)ccc1OCC(=O)O" . 99.5

Recall and state the measured cell viability for "O.O=[Si]=O.O=[Si]=O.O=[Si]=O.O=[Si]=O.[O]=[Mg].[O]=[Mg].[O]=[Mg]" . 107

Assign cell viability to the following record: "COc1c(-c2ccc3cc(NS(C)(=O)=O)ccc3c2)cc(-n2ccc(=O)[nH]c2=O)cc1C(C)(C)C" 97.9

Answer with the recorded cell viability of "Oc1c(Br)cc(Br)c2cccnc12" only. 97.6

Please report cell viability for the following compound: "CNc1nc(C)nc(N[C@H]2CCC[C@@H](C(=O)NCc3ccc(C#N)cc3C(F)(F)F)C2)n1" 93.2

# return recorded cell viability for input "CCOc1ccc(Cc2nccc3cc(OCC)c(OCC)cc23)cc1OCC" 105

Quickly give me recorded cell viability for CC(=O)Oc1cc2c(s1)CCN(C(C(=O)C1CC1)c1ccccc1F)C2 (configuration not stated) 97.3

Return the recorded cell viability value; entry: "O=C(O)Cn1c(C(=O)Nc2nc(-c3ccccc3Cl)cs2)cc2ccccc21" 103

Look up cell viability of "COc1cc(/C=C/C(=O)O)ccc1O" and report it. 95.6

State its cell viability for this compound: CN(C)C(=O)CCSC(SCCC(=O)O)c1cccc(/C=C/c2ccc3ccc(Cl)cc3n2)c1 (configuration not stated) 101

Read off the recorded cell viability for "O=C(O)CCc1c(C(=O)O)[nH]c2cc(Cl)cc(Cl)c12" 97.5

Given "O=C(O)C[C@H](O)C(=O)O" , respond with its cell viability. 95.2

Give the reported value of cell viability for this record: "N=C(N)Nc1ccc(C(=O)Oc2ccc3cc(C(=N)N)ccc3c2)cc1" 103

Entry "CCS(=O)(=O)N(Cc1cccnc1)c1cccc(-c2ccc(C#N)cc2)c1" needs its cell viability filled in; supply it. 96.8

Specify cell viability for "CN(C)CCC=C1c2ccccc2C=Cc2ccccc21" and stop. 99

Return value of cell viability for input COc1cc(C(=O)NC2CCCNC2)cc(OC)c1OC (configuration not stated) [troxipide] , no commentary. 106

Please look at this compound and report its cell viability: "CCCNS(=O)(=O)Nc1ncnc(OCCOc2ncc(Br)cn2)c1-c1ccc(Br)cc1" 99

Supply measured cell viability of "CCC(=O)O[C@@](Cc1ccccc1)(c1ccccc1)[C@@H](C)CN(C)C" in your reply. 102

Specify cell viability for "Cc1c(C(=O)Nc2ccc(N3CCC(N4CCOCC4)CC3)c(C#N)c2)cnn1-c1ccc(Cl)cc1" and stop. 89.6

Check the records and state cell viability for "NC(=S)N/N=C/c1ccncc1" 95.6

Input "CC(=O)NCC(=O)N[C@H](CCC(=O)O)C(=O)O" , output reported cell viability. 93

Give a short answer stating reported cell viability for "CC(C)C(=O)OC[C@@]1(N=[N+]=[N-])O[C@@H](n2ccc(N)nc2=O)[C@H](OC(=O)C(C)C)[C@@H]1OC(=O)C(C)C" . 100

Provide cell viability value for the following compound: "NC(=O)c1ncn([C@@H]2O[C@H](CO)[C@@H](O)[C@H]2O)c1O" 102
